experiment: Selectivity index, ratio of CC50 for african green monkey vero cells to IC50 for amastigote stage of Leishmania donovani infected in mouse J774A.1 cells; assay type: functional
Measured Ratio CC50/IC50, listed per entry for reference.
Note: the reply should be a number with no unit written.

stdin: Given the compound COc1cc(/C=C/C(=O)/C=C(\Nc2ccccc2)SC)cc(OC)c1OC , what is its reported Ratio CC50/IC50?
stdout: 31

stdin: Given the compound COc1ccc(N/C(=C\C(=O)/C=C/c2cc(OC)c(OC)c(OC)c2)SC)cc1 , what is its reported Ratio CC50/IC50?
stdout: 69

stdin: Given the compound COc1cc(/C=C/C(=O)/C=C(\NCc2ccccc2)SC)cc(OC)c1OC , what is its reported Ratio CC50/IC50?
stdout: 36

stdin: Given the compound COc1cc(/C=C/C(=O)/C=C(\Nc2ccc(Cl)cc2)SC)cc(OC)c1OC , what is its reported Ratio CC50/IC50?
stdout: 36

stdin: Given the compound NC[C@@H]1O[C@H](O[C@H]2[C@@H](O)[C@H](O[C@@H]3[C@@H](O)[C@H](N)C[C@H](N)[C@H]3O[C@H]3O[C@H](CO)[C@@H](O)[C@H](O)[C@H]3N)O[C@@H]2CO)[C@H](N)[C@@H](O)[C@@H]1O , what is its reported Ratio CC50/IC50?
stdout: 2

stdin: Given the compound COc1cc(/C=C/C(=O)/C=C(\NC2CCCCC2)SC)cc(OC)c1OC , what is its reported Ratio CC50/IC50?
stdout: 7

stdin: Given the compound COc1cc(/C=C/C(=O)/C=C(\Nc2ccc(F)cc2)SC)cc(OC)c1OC , what is its reported Ratio CC50/IC50?
stdout: 36

----------
Measured inhibition in vivo at 50 mg/kg, listed per entry for reference.
test system: Leishmania donovani; test: Antileishmanial activity against amastigote stage of Leishmania donovani infected in golden hamster assessed as inhibition of parasite multiplication at 50 mg/kg, ip administered 5 days measured on day 7 by Giemsa staining assay relative to control; type: functional; conditions: route intraperitoneal
Express the result in % but write the number alone.

Example compounds with recorded inhibition in vivo at 50 mg/kg:
# structure.smiles, system.tested, inhibition in vivo at 50 mg/kg / %
measured = [
    ("COc1cc(/C=C/C(=O)/C=C(\\Nc2ccc(F)cc2)SC)cc(OC)c1OC", "Leishmania donovani", 72),
    ("NC[C@@H]1O[C@H](O[C@H]2[C@@H](O)[C@H](O[C@@H]3[C@@H](O)[C@H](N)C[C@H](N)[C@H]3O[C@H]3O[C@H](CO)[C@@H](O)[C@H](O)[C@H]3N)O[C@@H]2CO)[C@H](N)[C@@H](O)[C@@H]1O", "Leishmania donovani", 46),
    ("COc1ccc(N/C(=C\\C(=O)/C=C/c2cc(OC)c(OC)c(OC)c2)SC)cc1", "Leishmania donovani", 32),
    ("COc1cc(/C=C/C(=O)/C=C(\\Nc2ccccc2)SC)cc(OC)c1OC", "Leishmania donovani", 83),
]

stdin: Given the compound COc1cc(/C=C/C(=O)/C=C(\Nc2ccc(Cl)cc2)SC)cc(OC)c1OC , what is its reported inhibition in vivo at 50 mg/kg?
stdout: 21

----------
Measured CC50 at 72 h, listed per entry for reference.
test: Cytotoxicity against african green monkey vero cells assessed as cell viability after 72 hrs by MTT assay; type: cell-based; settings: chlorocebus sabaeus
Express the result in µM but write the number alone.

stdin: Given the compound COc1cc(/C=C/C(=O)/C=C(\NC2CCCCC2)SC)cc(OC)c1OC , what is its reported CC50 at 72 h?
stdout: 22.7

stdin: Given the compound COc1cc(/C=C/C(=O)/C=C(\NCc2ccccc2)SC)cc(OC)c1OC , what is its reported CC50 at 72 h?
stdout: 71.5

stdin: Given the compound COc1cc(/C=C/C(=O)/C=C(\Nc2ccc(Cl)cc2)SC)cc(OC)c1OC , what is its reported CC50 at 72 h?
stdout: 57.9

stdin: Given the compound COc1cc(/C=C/C(=O)/C=C(\Nc2ccccc2)SC)cc(OC)c1OC , what is its reported CC50 at 72 h?
stdout: 64.6

stdin: Given the compound COc1cc(/C=C/C(=O)/C=C(\Nc2ccc(F)cc2)SC)cc(OC)c1OC , what is its reported CC50 at 72 h?
stdout: 43.4

stdin: Given the compound COc1ccc(N/C(=C\C(=O)/C=C/c2cc(OC)c(OC)c(OC)c2)SC)cc1 , what is its reported CC50 at 72 h?
stdout: 184

stdin: Given the compound NC[C@@H]1O[C@H](O[C@H]2[C@@H](O)[C@H](O[C@@H]3[C@@H](O)[C@H](N)C[C@H](N)[C@H]3O[C@H]3O[C@H](CO)[C@@H](O)[C@H](O)[C@H]3N)O[C@@H]2CO)[C@H](N)[C@@H](O)[C@@H]1O , what is its reported CC50 at 72 h?
stdout: 86.6
